Target: T1, ZH 01 as periplasmic ABD fusion AQHDEALE-[ZH 01]-VDYV-[ABD]-YVPG (Streptococcus strain G148, UniProt P19909 254-299, limits assumed)
T1 construct: domain: GA3
Assay: SPR (Biacore 2000) screening; periplasmic Z-ABD captured on anti-ABD antibody, 200 nM boxA(disulfide); 1:1 model
reported-property: Kd

[[record]]
binder = "boxA(disulfide), disulfide linked form of A-box domain of HMGB1 (other, disulfide C23-C45, also called b-boxA(disulfide)) MGKGDPKKPRGKMSSYAFFVQTCREEHKKKHPDASVNFSEFSKKCSERWKTMSAKEKGKFEDMAKADKARYEREMKTYIPPKGETKKKF"
recorded_measurement = "~4.7 nM"


Where these numbers come from: patent US20220389066A1
